B1: Twister Ribozyme (parent)
chain: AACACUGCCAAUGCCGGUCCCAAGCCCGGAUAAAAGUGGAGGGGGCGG

# Variants of: B1
# Test description: self-cleavage, relative activity (ratio to wild type); higher = more cleavage; co-transcriptional
Please enter fulfilled where self-cleavage is greater than or equal to 0.1, and not fulfilled where it is lower.

Worked set:
1. C5U G17C :: not fulfilled
2. G41U G44C :: fulfilled
3. C3G C8G :: fulfilled
4. G13C G16U :: fulfilled
5. C27G U37A :: fulfilled

Query: Confirm if self-cleavage reported for the variant U6A C27U is 0.1 or above.
Response: fulfilled

Query: Confirm if self-cleavage reported for the variant A1G C8G is 0.1 or above.
Response: fulfilled
